Ratio Ki for assorted molecules
experiment: Selectivity index, ratio of Ki for MOR in guinea pig cerebellum membranes to Ki for KOR in mouse whole brain membranes without cerebellum; assay type: cell membranes

{"mol.smiles": "CN(C(=O)c1ccccc1)[C@H]1C[C@@]23CCN(CC4CC4)[C@H]4C=C[C@@H]1C[C@]42Cc1ccc(O)cc13", "val": 3.63}
{"mol.smiles": "CN(C(=O)Cc1ccccc1)[C@@H]1C[C@@]23CCN(CC4CC4)[C@H]4C=C[C@@H]1C[C@]42Cc1ccc(O)cc13", "val": 1.75}

Read the next record carefully.
Quote Ratio Ki reported for `CN(C(=O)/C=C/c1ccoc1)[C@H]1C[C@@]23CCN(CC4CC4)[C@H]4C=C[C@@H]1C[C@]42Cc1ccc(O)cc13.Cl` please. 17

Origin of the recorded values: ChEMBL document CHEMBL3612011
